# tgt: Recombinant soluble 60-mer human BAFF (His-HuBAFF 134-285) (human, UniProt Q9Y275 134-285)
# procedureSummary: cell-based or functional assay
assayEndpoint: Soluble 60-mer huBAFF (4 pM) Neutralization IC50

- binder: "606H7F8 (antibody, V domains shown) VH: VQLVESGGGLVKPGGSLKLSCAASGFTFSSYDMSWVRQTPEKRLEWVAAINSYGVNTYYPDTVKDRFTISRDNAKNTLYLQMSSLRSEDTALYYCARLLIGPYYYAMDYWGQGTSVTVSS VL: DIQMTQSPASLSASVGETVTITCRASGNIHNYLAWYQQKQGKSPQLLVYNAKTLADGVPSRFSGSGSGTQFSLKINSLQPEDFGSYYCQHFWSTPYTFGGGTKLEIK"
  numericResult: 12
